experimental.target: PPARγ LBD (Homo sapiens, UniProt P37231)
Construct: expressed in transfected cells; host or cells: COS-7
protocol.description: LBD-hPPARs transactivation assay (GAL4-LBD luciferase reporter in COS-7 cells)
Type: cell-based
condition.summary: 48 h
test.readout: Functional activity PPARγ

Worked set:
| compound | experimental.result |
| --- | --- |
| O=C(NC(Cc1cccc(Oc2ccccc2)c1)C(=O)O)c1ccc(OCCN(Cc2ccccc2)Cc2ccccc2)cc1 (stereo not shown) | Antagonist |
| Cc1nc2ccccc2nc1OCCOc1ccc(C(=O)N(CCC(=O)O)Cc2cccc(OCc3ccccc3)c2)cc1 | Antagonist |
| O=C(N[C@@H](Cc1ccc(OCc2ccccc2)cc1)C(=O)O)c1cccc(OCc2ccc(OCc3ccccc3)cc2)c1 | Partial agonist |
| O=C(O)CCN(Cc1ccc(OCc2ccccc2)cc1)C(=O)c1cccc(OCCN(Cc2ccccc2)Cc2ccccc2)c1 | Antagonist |
| COC(=O)[C@H](Cc1ccc(OCc2ccccc2)cc1)NC(=O)c1ccc(OCc2ccccc2Cl)cc1 | Partial agonist |
| O=C(NC(Cc1c[nH]c2ccc(Br)cc12)C(=O)O)c1ccc(OCCN(Cc2ccccc2)Cc2ccccc2)cc1 (stereo not shown) | Antagonist |

Now, please, on to the next compound.
Task: Using the record for CCCCc1ccc(COc2ccc(C(=O)N(CCC(=O)O)Cc3cccc(OCc4ccccc4)c3)cc2)cc1 , report its Functional activity PPARγ.
Result: Antagonist

====

experimental.target: UniProt:Q07869
Sequence (Q07869 whole entry): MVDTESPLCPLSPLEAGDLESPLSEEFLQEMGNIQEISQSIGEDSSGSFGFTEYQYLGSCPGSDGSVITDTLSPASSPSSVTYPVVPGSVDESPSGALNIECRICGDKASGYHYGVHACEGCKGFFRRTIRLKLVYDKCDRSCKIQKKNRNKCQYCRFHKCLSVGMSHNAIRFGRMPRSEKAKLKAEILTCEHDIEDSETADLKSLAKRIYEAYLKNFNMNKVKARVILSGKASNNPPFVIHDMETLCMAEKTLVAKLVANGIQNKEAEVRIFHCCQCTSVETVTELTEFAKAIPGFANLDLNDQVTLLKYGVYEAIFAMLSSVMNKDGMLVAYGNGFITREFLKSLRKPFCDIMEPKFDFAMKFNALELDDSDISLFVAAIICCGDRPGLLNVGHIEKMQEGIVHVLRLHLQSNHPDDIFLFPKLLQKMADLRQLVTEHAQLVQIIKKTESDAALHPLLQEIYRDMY
test.readout: Ki

Task: Using the record for O=C(N[C@@H](Cc1ccc(OCc2ccccc2)cc1)C(=O)O)c1ccc(OCc2ccccc2-c2ccccc2)cc1 , report its Ki.
Result: > 3 µM

====

experimental.target: PPARγ LBD (Homo sapiens, UniProt P37231)
Construct: expressed in transfected cells; host or cells: COS-7
protocol.description: LBD-hPPARs transactivation assay (GAL4-LBD luciferase reporter in COS-7 cells)
Type: cell-based
condition.summary: 48 h
test.readout: Functional activity PPARγ

Worked set:
| molecule | experimental.result |
| --- | --- |
| COC(=O)[C@H](Cc1ccc(OCc2ccccc2)cc1)NC(=O)c1ccc(OCc2ccccc2C)cc1 | Antagonist |
| O=C(N[C@@H](Cc1ccc(OCc2ccccc2)cc1)C(=O)O)c1ccc(OCc2ccccc2-c2ccccc2)cc1 | Antagonist |
| O=C(N[C@@H](Cc1ccc(OCc2ccccc2)cc1)C(=O)O)c1ccc(OCCCc2ccccc2)cc1 | Partial agonist |
| O=C(O)CN(Cc1cccc(Oc2ccccc2)c1)C(=O)c1ccc(OCCN(Cc2ccccc2)Cc2ccccc2)cc1 | Antagonist |
| O=C(N[C@@H](Cc1ccc(OCc2ccccc2)cc1)C(=O)O)c1ccc(OCCOc2cccc(Br)c2)cc1 | Antagonist |
| Cc1nc2ccccc2nc1OCCOc1ccc(C(=O)N[C@@H](Cc2ccc(OCc3ccccc3)cc2)C(=O)N(C)C)cc1 | Partial agonist |

Task: Provide the documented Functional activity PPARγ with PPARγ LBD (Homo sapiens, UniProt P37231) as the system for O=C(O)CCN(Cc1cccc(OCc2ccccc2)c1)C(=O)c1cccc(OCCN(Cc2ccccc2)Cc2ccccc2)c1
Result: Antagonist

====

experimental.target: PPARγ LBD (Homo sapiens)
Construct: expressed in transfected cells; host or cells: COS-7
Sequence (P37231 238-503 limits assumed): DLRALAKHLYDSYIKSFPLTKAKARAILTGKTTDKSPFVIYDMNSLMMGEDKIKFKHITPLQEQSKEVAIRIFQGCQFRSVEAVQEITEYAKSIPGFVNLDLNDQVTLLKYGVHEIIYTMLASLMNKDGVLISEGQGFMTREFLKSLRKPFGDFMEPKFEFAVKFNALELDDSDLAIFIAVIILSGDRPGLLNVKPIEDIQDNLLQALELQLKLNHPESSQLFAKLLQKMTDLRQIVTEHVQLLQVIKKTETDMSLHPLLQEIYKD
protocol.description: LBD-hPPARs transactivation assay (GAL4-LBD luciferase reporter in COS-7 cells)
Type: cell-based
condition.summary: 48 h
test.readout: Functional activity PPARγ

Worked set:
| compound | Functional activity PPARγ |
| --- | --- |
| Cc1nc2ccccc2nc1OCCOc1cccc(C(=O)N[C@@H](Cc2ccc(OCc3ccccc3)cc2)C(=O)O)c1 [Example 180] | Partial agonist |
| O=C(N[C@@H](Cc1ccc(OCc2ccccc2)cc1)C(=O)O)c1cccc(OCc2cccc(Oc3ccccc3)c2)c1 [Example 188] | Partial agonist |
| O=C(N[C@@H](Cc1ccc(OCc2ccccc2)cc1)C(=O)O)c1cccc(OCc2cccc(OCc3ccccc3)c2)c1 [Example 145] | Antagonist |
| Cc1nc2ccccc2nc1OCCOc1ccc(C(=O)N[C@@H](Cc2ccc(F)cc2)C(=O)O)cc1 [Example 192] | Partial agonist |
| O=C(N[C@H](Cc1c[nH]c2ccccc12)C(=O)O)c1ccc(OCCN(Cc2ccccc2)Cc2ccccc2)cc1 [Example 131] | Partial agonist |
| O=C(NC(Cc1ccc(-c2ccccc2)cc1)C(=O)O)c1ccc(OCCN(Cc2ccccc2)Cc2ccccc2)cc1 (stereo not drawn) [Example 136] | Antagonist |
| COC(=O)[C@H](Cc1ccc(OCc2ccccc2)cc1)NC(=O)c1ccc(OCc2cccc(Cl)c2)cc1 [Example 21] | Partial agonist |
| Cc1ccccc1COc1ccc(C(=O)N[C@@H](Cc2ccc(OCc3ccccc3)cc2)C(=O)O)cc1 [Example 243] | Antagonist |
| O=C(O)CCN(Cc1ccc(OCc2ccccc2)cc1)C(=O)c1ccc(OCc2cccc(OCc3ccccc3)c2)cc1 [Example 176] | Antagonist |
| O=C(N[C@@H](Cc1ccc(OCc2ccccc2)cc1)C(=O)O)c1ccc(OCc2ccccc2Br)cc1 [Example 238] | Antagonist |

Task: Using the record for O=C(N[C@@H](Cc1ccc(OCc2ccccc2)cc1)C(=O)O)c1ccc(OCc2ccc(OCc3ccccc3)cc2)cc1 [Example 183] , report its Functional activity PPARγ.
Result: Partial agonist

Task: Using the record for COC(=O)[C@H](Cc1ccc(OCc2ccccc2)cc1)NC(=O)c1ccc(OCCOc2cccc3cccnc23)cc1 [Example 98] , report its Functional activity PPARγ.
Result: Antagonist

Task: Using the record for O=C(N[C@@H](Cc1ccc(OCc2ccccc2)cc1)C(=O)O)c1ccc(OCc2ccccc2)cc1 [Example 129] , report its Functional activity PPARγ.
Result: Partial agonist

Task: Using the record for O=C(O)CCN(Cc1cccc(OCc2ccccc2)c1)C(=O)c1ccc(OCCN(Cc2ccccc2)Cc2ccccc2)cc1 [Example 162] , report its Functional activity PPARγ.
Result: Antagonist
